Entries and their IC50
Experimental target: thromboxane synthetase (Homo sapiens, UniProt P24557)
Construct: endogenous in cells
Sequence (P24557 whole entry): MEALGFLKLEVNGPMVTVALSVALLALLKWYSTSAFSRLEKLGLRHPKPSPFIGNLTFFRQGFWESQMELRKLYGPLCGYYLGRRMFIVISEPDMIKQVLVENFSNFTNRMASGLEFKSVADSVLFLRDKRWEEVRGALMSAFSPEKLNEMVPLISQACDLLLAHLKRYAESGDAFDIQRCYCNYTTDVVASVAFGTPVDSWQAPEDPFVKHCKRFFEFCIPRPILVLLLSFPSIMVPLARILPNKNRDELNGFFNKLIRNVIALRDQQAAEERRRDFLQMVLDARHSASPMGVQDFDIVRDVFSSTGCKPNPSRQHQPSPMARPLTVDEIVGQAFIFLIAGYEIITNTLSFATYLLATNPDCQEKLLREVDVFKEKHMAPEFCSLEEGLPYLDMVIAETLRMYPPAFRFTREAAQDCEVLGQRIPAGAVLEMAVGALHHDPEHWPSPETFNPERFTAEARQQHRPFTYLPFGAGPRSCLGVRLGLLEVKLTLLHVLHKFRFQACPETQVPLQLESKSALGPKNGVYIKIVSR
Assay overview: Inhibitory effect on thromboxane synthetase (TXB2 formation from arachidonic acid in human platelets)
Experimental context: inhibition of TXB2 formation, human platelet suspension, 14C-arachidonic acid
Protocol: Venous human blood is anti-coagulated with 13 mM Na3 citrate and centrifuged for 10 minutes at 170×g. The supernatant platelet-rich plasma is passed through a Sepharose 2B column in order to remove the plasma proteins. […] After cutting out, the activity is measured in a scintillation counter and the inhibition of the formation of TXB2 is calculated. The IC50 is determined by linear interpolation.
Form entry: value (nM) — number only.

Example cases with answers are listed next.
Compound	IC50 [nM]
O=C(O)CCCC=C(c1ccc(CCNS(=O)(=O)c2ccc(C(F)(F)F)cc2)cc1)c1cccnc1	6
O=C(O)CCCC=C(c1ccc(CCNS(=O)(=O)c2ccc(Cl)cc2)cc1)c1cccnc1	0.8
Cc1ccc(S(=O)(=O)NC2Cc3ccc(C(=CCCCC(=O)O)c4cccnc4)cc3C2)cc1 (centres unmarked)	3
O=C(O)CCCCC(c1cccnc1)c1ccc2c(c1)CC(NS(=O)(=O)c1ccc(Cl)cc1)C2 (centres unmarked)	3

Moving on to the next compound.
Request: Quick check: IC50 of O=C(O)CCCCC(c1ccc(CCNS(=O)(=O)c2ccc(Cl)cc2)cc1)c1cccnc1 (centres unmarked) ?
Result: 1
